Would you mind telling me the reported protein stability index of each entry?
Test system: Saccharomyces cerevisiae
assay-procedure: protein stability index of tFT-peptide fusion (C-terminal peptide) (PSI (0-1 scale)); higher = more stable (slower turnover)
condition: genetic background: wild type; temperature: 30 C
Numbers only.

{"columns": ["sequence-data", "recorded-metric", "reported-result"],
 "data": [
  ["RQTKAFISKFMT [DBR1 C-terminal 12 aa]", "protein stability index", 0.682],
  ["LLEKLDIKDKKE [YVC1 C-terminal 12 aa]", "protein stability index", 0.703],
  ["SGYDYFDVSVSG [YAT1 C-terminal 12 aa]", "protein stability index", 0.712],
  ["DGGLAGPVTVRD [FMP45 C-terminal 12 aa]", "protein stability index", 0.713],
  ["CLSGIGLFPVSS [YHL030W-A C-terminal 12 aa]", "protein stability index", 0.69],
  ["YLERRVRTLKKD [MRPL32 C-terminal 12 aa]", "protein stability index", 0.68],
  ["EECVKVQWESRT [TSR4 C-terminal 12 aa]", "protein stability index", 0.694],
  ["YAWTRGLTNPIC [FEX1 C-terminal 12 aa]", "protein stability index", 0.69],
  ["VRDHFGVINSIW [YJL070C C-terminal 12 aa]", "protein stability index", 0.694]
]}

// next item, protein stability index requested
Req: Requested read-out: protein stability index. Entry: MKHTKKLQLDKV [PKP2 C-terminal 12 aa]
Resp: 0.696

----------
Tested on: Saccharomyces cerevisiae
assay-procedure: protein stability index of tFT-peptide fusion in wild type (PSI (0-1 scale)); higher = more stable (slower turnover)
condition: genetic background: wild type
Would you mind telling me the reported protein stability index of each entry?
Numbers only.

{"columns": ["sequence-data", "protein stability index"],
 "data": [
  ["RFTRLDAIYFRI", 0.378]
]}

Each of the following entries comes with a recorded value; kindly state protein stability index for each.
1. HLYMCSVGCWFR
2. AITLPMVPLLLR
3. FSMRWTFRYWVK
4. RLKQPLPVQFLN
5. FSMRWTFRYWEN
6. AITLPMCPLLLRD

Resp:
1: 0.401; 2: 0.153; 3: 0.49; 4: 0.181; 5: 0.5; 6: 0.422

----------
Tested on: Saccharomyces cerevisiae
assay-procedure: protein stability index of tFT-peptide fusion (C-terminal peptide) (PSI (0-1 scale)); higher = more stable (slower turnover)
condition: genetic background: wild type; temperature: 30 C
true means recorded protein stability index is 0.7 or above; false means it is below 0.7.

{"columns": ["sequence-data", "label-value"],
 "data": [
  ["LVSGRRWMLGSG", "false"],
  ["RWLGGTGGWKSR", "false"],
  ["SYVFEFIVSVVF", "false"],
  ["GAFLGSPWAAAS", "true"],
  ["YLSVPVGPAMAL", "false"]
]}

Req: Identify whether the reported protein stability index of the following sequence is 0.7 or greater: PPSPRPPRPLFA
Resp: false

Req: Do the same for GWVQFVKAAVLF please
Resp: false

Req: Do the same for RLRFIGDCKSST please
Resp: false

Req: Do the same for TRRRGGAREGPY please
Resp: true

Req: Do the same for VTLSYDTKWLWL please
Resp: false

Req: Do the same for FFSMVFVFGFRA please
Resp: false

Req: Do the same for MINYGLARKKAR please
Resp: true

Req: Do the same for VYRILFWFLCFG please
Resp: false

Req: Do the same for HLYPFPSLHFAF please
Resp: true

Req: Do the same for FYPFHVFCLLIF please
Resp: false

Req: Do the same for ERNKKKNNQVNK please
Resp: false

Req: Do the same for QGGGDREVRVSE please
Resp: false

Req: Do the same for PHLAPPPGPLHP please
Resp: true

Req: Do the same for PPSPPPLSASVP please
Resp: false

Req: Do the same for GFVCRRFRFGCI please
Resp: false

Req: Do the same for KGETSYTGIAVG please
Resp: false

Req: Do the same for ELASLSPCCMGM please
Resp: true

Req: Do the same for RAGSLTSGVCGP please
Resp: false

Req: Do the same for APARPCPLLSTS please
Resp: false
